Test system: Escherichia coli TOP10
PROTOCOL_DETAILS: shrunken log2 fold change of peptide-encoding DNA abundance (4.5 h post-induction vs induction); higher = less antimicrobial activity (less host growth inhibition)
CONDITIONS: time post-induction: 4.5 h; library: site-saturation at positions 5, 18, 19, 20
We use -0.008 as the dividing line for shrunken log2 fold change: on or above the line is YES, below is NO.

[
  {
    "RESIDUE_CODES": "RRIRVRPPRLPRPRPRPWVNPRP",
    "TARGET_OR_SYSTEM": "Escherichia coli TOP10",
    "ANSWER_LABEL": "YES"
  },
  {
    "RESIDUE_CODES": "RRIRNRPPRLPRPRPRPTRQPRP",
    "TARGET_OR_SYSTEM": "Escherichia coli TOP10",
    "ANSWER_LABEL": "YES"
  },
  {
    "RESIDUE_CODES": "RRIRGRPPRLPRPRPRPDPPPRP",
    "TARGET_OR_SYSTEM": "Escherichia coli TOP10",
    "ANSWER_LABEL": "YES"
  },
  {
    "RESIDUE_CODES": "RRIRIRPPRLPRPRPRPAMFPRP",
    "TARGET_OR_SYSTEM": "Escherichia coli TOP10",
    "ANSWER_LABEL": "NO"
  },
  {
    "RESIDUE_CODES": "RRIRGRPPRLPRPRPRPHSHPRP",
    "TARGET_OR_SYSTEM": "Escherichia coli TOP10",
    "ANSWER_LABEL": "YES"
  },
  {
    "RESIDUE_CODES": "RRIRGRPPRLPRPRPRPKEVPRP",
    "TARGET_OR_SYSTEM": "Escherichia coli TOP10",
    "ANSWER_LABEL": "YES"
  },
  {
    "RESIDUE_CODES": "RRIRVRPPRLPRPRPRPEVMPRP",
    "TARGET_OR_SYSTEM": "Escherichia coli TOP10",
    "ANSWER_LABEL": "YES"
  },
  {
    "RESIDUE_CODES": "RRIRNRPPRLPRPRPRPGHYPRP",
    "TARGET_OR_SYSTEM": "Escherichia coli TOP10",
    "ANSWER_LABEL": "NO"
  },
  {
    "RESIDUE_CODES": "RRIRKRPPRLPRPRPRPMHWPRP",
    "TARGET_OR_SYSTEM": "Escherichia coli TOP10",
    "ANSWER_LABEL": "YES"
  },
  {
    "RESIDUE_CODES": "RRIRDRPPRLPRPRPRPIEVPRP",
    "TARGET_OR_SYSTEM": "Escherichia coli TOP10",
    "ANSWER_LABEL": "NO"
  },
  {
    "RESIDUE_CODES": "RRIRCRPPRLPRPRPRPKWEPRP",
    "TARGET_OR_SYSTEM": "Escherichia coli TOP10",
    "ANSWER_LABEL": "YES"
  },
  {
    "RESIDUE_CODES": "RRIRMRPPRLPRPRPRPFHIPRP",
    "TARGET_OR_SYSTEM": "Escherichia coli TOP10",
    "ANSWER_LABEL": "NO"
  },
  {
    "RESIDUE_CODES": "RRIRLRPPRLPRPRPRPLKYPRP",
    "TARGET_OR_SYSTEM": "Escherichia coli TOP10",
    "ANSWER_LABEL": "NO"
  },
  {
    "RESIDUE_CODES": "RRIRIRPPRLPRPRPRPAVPPRP",
    "TARGET_OR_SYSTEM": "Escherichia coli TOP10",
    "ANSWER_LABEL": "NO"
  }
]

---

Tested on: Escherichia coli TOP10;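 also: peptides expressed intracellularly from a pBAD plasmid library in pooled LB shake-flask culture, induced with 0.3% L-arabinose, DNA abundance read by NGS, three biological replicates, DESeq2 with apeglm shrinkage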
PROTOCOL_DETAILS: shrunken log2 fold change of peptide-encoding DNA abundance (4.5 h post-induction vs induction); higher = less antimicrobial activity (less host growth inhibition)
CONDITIONS: time post-induction: 4.5 h; library: site-saturation at positions 5, 18, 19, 20
READOUT_NAME: shrunken log2 fold change

[
  {
    "RESIDUE_CODES": "RRIRLRPPRLPRPRPRPTDMPRP",
    "READOUT_NAME": "shrunken log2 fold change",
    "RECORDED_NUMBER": -0.633
  },
  {
    "RESIDUE_CODES": "RRIRMRPPRLPRPRPRPHKLPRP",
    "READOUT_NAME": "shrunken log2 fold change",
    "RECORDED_NUMBER": -0.0702
  },
  {
    "RESIDUE_CODES": "RRIRTRPPRLPRPRPRPGQFPRP",
    "READOUT_NAME": "shrunken log2 fold change",
    "RECORDED_NUMBER": -0.182
  },
  {
    "RESIDUE_CODES": "RRIRHRPPRLPRPRPRPVREPRP",
    "READOUT_NAME": "shrunken log2 fold change",
    "RECORDED_NUMBER": 0.522
  },
  {
    "RESIDUE_CODES": "RRIRIRPPRLPRPRPRPKSDPRP",
    "READOUT_NAME": "shrunken log2 fold change",
    "RECORDED_NUMBER": -0.222
  },
  {
    "RESIDUE_CODES": "RRIRGRPPRLPRPRPRPNRPPRP",
    "READOUT_NAME": "shrunken log2 fold change",
    "RECORDED_NUMBER": -0.211
  },
  {
    "RESIDUE_CODES": "RRIRVRPPRLPRPRPRPIIPPRP",
    "READOUT_NAME": "shrunken log2 fold change",
    "RECORDED_NUMBER": -0.36
  },
  {
    "RESIDUE_CODES": "RRIRGRPPRLPRPRPRPKSMPRP",
    "READOUT_NAME": "shrunken log2 fold change",
    "RECORDED_NUMBER": 0.366
  }
]
